This collection of values is drawn from PubChem BioAssay (NCI).

System: SK-MEL-5 melanoma
Assay: NCI tumour cell line growth inhibition, 48 h
TGI by entry:

Below: 4 compounds and their reported TGI.
Quick check: TGI of CC(=O)OC1(C#N)CC2OC1C1N=NN(C(=O)OC(C)(C)C)C21 (stereo not given) ?
> 31.6 µM

Item Cc1nc2ccccc2c(/C=C/c2ccccc2)c1C(=O)/C=C/c1ccccc1 has what recorded TGI?
3.17 µM

Please look up its TGI: COCC(=O)NC/C=C/c1ccc2ncnc(Nc3ccc(Oc4ccc(C)nc4)c(C)c3)c2c1
13 µM

Can you look up the measured TGI of CCOC(=O)C(=O)C(/C(=N/N(C)C)C(=O)Nc1ccc(C)cc1C)c1nc2ccccc2[nH]c1=O (stereo not given) for me?
> 100 µM

Switching to the query record.
Entry under review: Fc1ccc2c(c1)cc1ccc3cccc4ccc2c1c34 . Reported TGI?
> 100 µM

* * *

Test system: SF-268 CNS
Assay: NCI tumour cell line growth inhibition, 48 h
ASSAY_METRIC: TGI (µM)
Give the value, in units of µM, as a plain number.

TGI lookup needed for CC(C)c1cc(C(=O)[O-])c(O)c(C(C)C)c1.CC(C)c1cc(C(=O)[O-])c(O)c(C(C)C)c1.CC(C)c1cc(C(=O)[O-])c(O)c(C(C)C)c1.CC(C)c1cc(C(=O)[O-])c(O)c(C(C)C)c1.CC(C)c1cc(C(=O)[O-])c(O)c(C(C)C)c1.CC(C)c1cc(C(=O)[O-])c(O)c(C(C)C)c1.[Cu+2].[Mn+2].[Mn+2] , thanks.
82.7

Continue with the next compound.
Recorded TGI of CCCCCCCCCCCCC(NC(C)=O)(C(=O)OCC)C(=O)OCC , please.
28.5

* * *

Test system: K-562 leukemia
Assay: NCI tumour cell line growth inhibition, 48 h
ASSAY_METRIC: TGI

// worked examples, TGI included
Param item = O=C(NNC(=O)c1c(Cl)c(Cl)c(Cl)c(Cl)c1-c1nc2ccccc2[nH]1)c1ccc(Cl)cc1 ; retrieve measured TGI.
> 100 µM

# query: TGI of entry COc1ccc2c(c1)c(=O)c1c(NCCCN(C)C)ccc3ncn2c31
> 56.1 µM

Fill in: TGI of COc1cc(/C=C2\Cc3ccccc3C2=O)cc(OC)c1OC is ___
> 100 µM

Continuing:
Recorded TGI for S=C(S)N1CCN(c2ccccc2)CC1 , please?
> 100 µM

* * *

System: UACC-257 melanoma
Experiment: NCI tumour cell line growth inhibition, 48 h; in the data active means GI50 below about 0.43 µM; inactive means the rest
Returns: one label drawn from active, inactive

Here are 5 compounds together with their reported answers.
Write down the call the test reported for this compound. Item: CC(=Nc1ccccc1)C1=C(O)C(Cc2ccc(F)cc2)NC1=O (stereo unspecified)
inactive

Look up the recorded call for C[C@@]1(O)CCC[C@H]1n1c(=O)c(C(F)F)cc2cnc(NC3CCN(S(C)(=O)=O)CC3)nc21 in this test.
inactive

Identify the outcome logged in this assay for the compound shown: CCCCCCCCCCCCC(NC(C)=O)(C(=O)OCC)C(=O)OCC
inactive

Recorded call for CCCC(=O)Nc1c(I)cc(I)c(CC(CC)C(=O)O)c1I (stereo unspecified) ?
inactive

In this assay, the call recorded for Cc1ccc2c(c1)-c1oc(=O)c(-c3cc4ccccc4oc3=O)cc1C(O)O2 (stereo unspecified) was what?
inactive

New cases:
Hello, I am checking results. What call was entered for O=S(=O)(NCCNc1cc(-c2cn(-c3ccccc3)nc2-c2cccc(O)c2)ccn1)c1ccc(Br)cc1 ?
inactive

Could you please tell me the result logged for CCCc1n(Cc2ccc3ccccc3n2)cc[n+]1Cc1ccc2ccccc2c1 in this assay?
active

Outcome logged for CCN(CC)CCOc1ccc(Cc2ccccc2)cc1 in this assay:
inactive

Dear colleague, could you share the recorded outcome for C[C@@H]1OC(=O)NN=C1c1ccc(-c2ccc(F)cc2)c(C(F)(F)F)c1 when you have a moment?
inactive

State the result this test recorded for COCC(=O)NC/C=C/c1ccc2ncnc(Nc3ccc(Oc4ccc(C)nc4)c(C)c3)c2c1 .
inactive

What is the recorded call for this compound in the test? COC(=O)[C@H](Cc1cn(C)cn1)NC(=O)[C@@H](NC(=O)Nc1cc(C(F)(F)F)cc(C(F)(F)F)c1)C(C)(C)C
inactive

Identify the outcome logged in this assay for the compound shown: CC(C)=CCc1c(O)c(C(=O)CC(C)C)c(O)c2c(-c3ccccc3)cc(=O)oc12
inactive

Any idea what this test logged for Cc1cc(C)c(O)c(CNCCCNCc2cc(C)cc(C)c2O)c1 ?
inactive

How did this test come out for N.N.NCCCCCN.O=C([O-])CC(=O)[O-].O=C([O-])CC(=O)[O-].[Pt+4].[Pt+4] ?
inactive

Would you mind telling me which call this test gave N#Cc1ccc(NC(=O)Nc2nc3ccc(OC(F)(F)F)cc3s2)cc1 ?
inactive

Returns: the outcome recorded for O=C1CCC(N2C(=O)c3cccc(NCCOCCOCCNC(=O)c4cc5c(o4)C(=O)c4ccccc4C5=O)c3C2=O)C(=O)N1 (stereo unspecified) in this assay.
inactive
